- EXPERIMENTAL TARGET: human A2B receptors (Homo sapiens, UniProt P29275)
- ASSAY DETAILS: Inhibition of human A2B receptor in recombinant HEK293 cells, cAMP quantification (HTRF)
- SETUP CONDITIONS: read-out: A2B (Category)
pIC50: −log10 of the molar value.
MEASURED PARAMETER: pIC50

INSERT INTO measurements (molecule, observed_measurement) VALUES
  ('O=C(c1cc2c(cn1)c(Nc1cnccn1)nn2CC(F)(F)F)N1CCOC[C@@H](F)C1', '> 7.00');

Give pIC50 only, for "O=C(c1cc2c(cn1)c(Nc1cc(F)ccn1)nn2CC(F)(F)F)N1CCC(O)CC1" , using human A2B receptors (Homo sapiens, UniProt P29275) data.
> 7.00

With human A2B receptors (Homo sapiens, UniProt P29275) as the test system, provide measured pIC50 for this compound: "O=C(c1cc2c(cn1)c(Nc1ccccc1F)nn2CC(F)(F)F)N1CCCOCC1"
> 6.00

Report value: pIC50, system: human A2B receptors (Homo sapiens, UniProt P29275), compound: "CS(=O)(=O)Cn1nc(Nc2ccccc2)c2cnc(C(=O)N3[C@@H]4CC[C@H]3C[C@@H](O)C4)cc21"
> 7.00

For human A2B receptors (Homo sapiens, UniProt P29275), give pIC50 of the listed compound: "O=C(c1cc2c(cn1)c(Nc1cccc(F)c1)nn2CC(F)(F)F)N1CCCOCC1"
> 7.00

Look up and report measured pIC50 (human A2B receptors (Homo sapiens, UniProt P29275)) for the following compound: "CS(=O)(=O)Cn1nc(Nc2ccc(F)cc2)c2cnc(C(=O)N3[C@@H]4CC[C@H]3C[C@@H](O)C4)cc21"
> 6.00

Give measured pIC50 for "O=C(c1cc2c(cn1)c(Nc1cc(F)ccn1)nn2CC(F)(F)F)N1CCC(F)CC1" (human A2B receptors (Homo sapiens, UniProt P29275)).
> 7.00

----------
- EXPERIMENTAL TARGET: human A2B receptors (Homo sapiens, UniProt P29275)
- ASSAY DETAILS: Inhibition of human A2B receptor in recombinant HEK293 cells, cAMP quantification (HTRF)
- SETUP CONDITIONS: read-out: A2B (Category)
Overview of recorded IC50 for various compounds

Before answering, review these 7 worked examples.
INSERT INTO assay_data (compound, observed_measurement) VALUES
  ('O=C(c1cc2c(cn1)c(Nc1ccc(F)cn1)nn2CC(F)(F)F)N1CCOC[C@@H](F)C1 [Compound 93]', '< 100 nM'),
  ('O=C(c1cc2c(cn1)c(Nc1cc(Cl)ccn1)nn2CC(F)(F)F)N1CCCOCC1 [Compound 64]', '< 100 nM'),
  ('O=C(c1cc2c(cn1)c(Nc1cc(F)ccn1)nn2CC(F)(F)F)N1CCCOCC1 [Compound 46]', '< 100 nM'),
  ('COc1ccnc(Nc2nn(CC(F)(F)F)c3cc(C(=O)N4CCCOCC4)ncc23)c1 [Compound 63]', '< 100 nM'),
  ('O=C(c1cc2c(cn1)c(Nc1ccc(F)cc1)nn2CC(F)(F)F)N1CCOCC(O)C1 (centres unmarked) [Compound 33]', '< 1000 nM'),
  ('O=C(c1cc2c(cn1)c(Nc1ccc(F)cn1)nn2CC(F)(F)F)N1CCC(F)CC1 [Compound 96]', '< 1000 nM'),
  ('[2H]C1([2H])COCCN(C(=O)c2cc3c(cn2)c(Nc2cc(F)ccn2)nn3CC(F)(F)F)C1 [Compound 60]', '< 100 nM');

Enter recorded IC50 with human A2B receptors (Homo sapiens, UniProt P29275) for O=C(c1cc2c(cn1)c(Nc1cc(C(F)(F)F)ccn1)nn2CC(F)(F)F)N1CCCOCC1 [Compound 62] here.
< 1000 nM

----------
- EXPERIMENTAL TARGET: human A2A receptors (Homo sapiens, UniProt P29274)
- Sequence (P29274 whole entry): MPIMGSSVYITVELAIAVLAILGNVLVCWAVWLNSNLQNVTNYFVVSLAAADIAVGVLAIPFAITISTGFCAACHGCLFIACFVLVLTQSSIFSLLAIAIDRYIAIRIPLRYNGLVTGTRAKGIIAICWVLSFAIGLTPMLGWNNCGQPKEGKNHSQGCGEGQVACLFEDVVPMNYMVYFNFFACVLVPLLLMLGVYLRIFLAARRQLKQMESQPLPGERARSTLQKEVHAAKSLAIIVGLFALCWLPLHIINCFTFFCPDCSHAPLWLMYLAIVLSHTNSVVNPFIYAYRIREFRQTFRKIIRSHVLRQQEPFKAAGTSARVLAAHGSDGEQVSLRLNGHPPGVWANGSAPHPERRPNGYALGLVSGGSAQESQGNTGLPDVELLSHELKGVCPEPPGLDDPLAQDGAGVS
- ASSAY DETAILS: Inhibition of human A2A receptor in recombinant HEK293 cells, cAMP quantification (HTRF)
- SETUP CONDITIONS: read-out: A2A (Category)
pIC50: −log10 of the molar value.
MEASURED PARAMETER: pIC50

Would you please look over these solved cases?
INSERT INTO measurements (molecule, experimental_target, observed_measurement) VALUES
  ('O=C(c1cc2c(cn1)c(Nc1cc(F)ccn1)nn2CC(F)(F)F)N1CCC(O)(C2CC2)CC1', 'human A2A receptors (Homo sapiens, UniProt P29274)', '> 7.00'),
  ('O=C(c1cc2c(cn1)c(Nc1cnccn1)nn2CC(F)(F)F)N1CCC(O)CC1', 'human A2A receptors (Homo sapiens, UniProt P29274)', '> 7.00'),
  ('[2H]C1([2H])COCCN(C(=O)c2cc3c(cn2)c(Nc2ccc(F)cn2)nn3CC(F)(F)F)C1', 'human A2A receptors (Homo sapiens, UniProt P29274)', '> 7.00');

Quote pIC50 with test system human A2A receptors (Homo sapiens, UniProt P29274) for "CC1(O)CCN(C(=O)c2cc3c(cn2)c(Nc2cnccn2)nn3CC(F)(F)F)CC1"
> 6.00

GET pIC50 | system: human A2A receptors (Homo sapiens, UniProt P29274) | item: "O=C(c1cc2c(cn1)c(Nc1ccc(F)cc1)nn2CC(F)(F)F)N1CC2CCC(C1)O2"
> 7.00

----------
Reported pIC50 values for the following molecules.
- EXPERIMENTAL TARGET: human A2B receptors (Homo sapiens)
- ASSAY DETAILS: Inhibition of human A2B receptor in recombinant HEK293 cells, cAMP quantification (HTRF)
- SETUP CONDITIONS: read-out: A2B (Category)
pIC50: −log10 of the molar value.

Solved entries:
INSERT INTO assay_data (molecule, experimental_target, observed_measurement) VALUES
  ('COc1cc(Nc2nn(CC(F)(F)F)c3cc(C(=O)N4CCCOCC4)ncc23)ncc1F', 'human A2B receptors (Homo sapiens)', '> 6.00'),
  ('O=C(c1cc2c(cn1)c(Nc1cc(F)cc(F)c1)nn2CC(F)(F)F)N1CCCOCC1', 'human A2B receptors (Homo sapiens)', '> 6.00'),
  ('O=C(c1cc2c(cn1)c(Nc1cnc(Cl)cn1)nn2CC(F)(F)F)N1CCC(O)CC1', 'human A2B receptors (Homo sapiens)', '> 7.00'),
  ('O=C(c1cc2c(cn1)c(Nc1ccc(F)cn1)nn2CC(F)(F)F)N1CCC[C@H](F)C1', 'human A2B receptors (Homo sapiens)', '> 6.00'),
  ('[2H]C1([2H])COCCN(C(=O)c2cc3c(cn2)c(Nc2cccc(F)c2)nn3CC(F)(F)F)C1', 'human A2B receptors (Homo sapiens)', '> 7.00');

Kindly indicate its recorded pIC50. Item: "CS(=O)(=O)Cn1nc(Nc2ccc(Cl)cn2)c2cnc(C(=O)N3CCCOCC3)cc21"
> 7.00

Read the entry "CC1(O)CCN(C(=O)c2cc3c(cn2)c(Nc2cc(F)ccn2)nn3CC(F)(F)F)CC1" and write its reported pIC50.
> 7.00

Give the measured pIC50 for O=C(c1cc2c(cn1)c(Nc1ccccn1)nn2CC(F)(F)F)N1CCOCC(O)C1 (stereo not shown)
> 7.00

For the molecule "CS(=O)(=O)Cn1nc(Nc2ccc(F)cn2)c2cnc(C(=O)N3CCCOCC3)cc21" , give its measured pIC50 value.
> 7.00

Supply recorded pIC50 for "O=C(c1cc2c(cn1)c(Nc1ccc(Cl)c(F)c1)nn2CC(F)(F)F)N1CCCOCC1" here.
> 7.00

Specify pIC50 for "O=C(c1cc2c(cn1)c(Nc1cc(Cl)c(F)cn1)nn2CC(F)(F)F)N1CCCOCC1" and stop.
> 6.00

Please indicate pIC50 recorded for "O=C(c1cc2c(cn1)c(Nc1ccc(F)cc1)nn2CC(F)(F)F)N1CCCOCC1"
> 7.00

Dear colleague, please send me the reported pIC50 for "[2H]C1([2H])COCCN(C(=O)c2cc3c(cn2)c(Nc2ccc(F)cn2)nn3CC(F)(F)F)C1" when you can.
> 7.00

For the molecule "O=C(c1cc2c(cn1)c(Nc1cnccn1)nn2CC(F)(F)F)N1CCC(O)CC1" , give its measured pIC50 value.
> 7.00

For O=C(c1cc2c(cn1)c(Nc1cccc(F)c1)nn2CC(F)(F)F)N1CCOCC(O)C1 (stereo not shown) , write its pIC50.
> 6.00

Look up and report measured pIC50 for this entry: "O=C(c1cc2c(cn1)c(Nc1cc(F)ccn1)nn2CC(F)(F)F)N1CCOC[C@@H](F)C1"
> 7.00

----------
- EXPERIMENTAL TARGET: human A2B receptors (Homo sapiens)
- Sequence (P29275 1-332): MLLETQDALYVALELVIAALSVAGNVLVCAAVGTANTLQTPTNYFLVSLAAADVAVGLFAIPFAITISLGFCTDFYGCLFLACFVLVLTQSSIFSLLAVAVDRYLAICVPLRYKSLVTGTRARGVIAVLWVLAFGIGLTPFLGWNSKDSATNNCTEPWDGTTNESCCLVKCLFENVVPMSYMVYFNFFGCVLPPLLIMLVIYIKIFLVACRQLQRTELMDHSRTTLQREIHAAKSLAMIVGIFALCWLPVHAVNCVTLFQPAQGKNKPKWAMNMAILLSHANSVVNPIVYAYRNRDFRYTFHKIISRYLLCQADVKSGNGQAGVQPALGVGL
- ASSAY DETAILS: Inhibition of human A2B receptor in recombinant HEK293 cells, cAMP quantification (HTRF)
- SETUP CONDITIONS: read-out: A2B (Category)
Listed compounds paired with reported IC50

INSERT INTO assay_data (molecule, experimental_target, observed_measurement) VALUES
  ('CS(=O)(=O)Cn1nc(Nc2cccc(F)c2)c2cnc(C(=O)N3CCCOCC3)cc21', 'human A2B receptors (Homo sapiens)', '< 100 nM'),
  ('CC1(O)CCN(C(=O)c2cc3c(cn2)c(Nc2ccc(F)cn2)nn3CC(F)(F)F)CC1', 'human A2B receptors (Homo sapiens)', '< 1000 nM'),
  ('COc1cccc(Nc2nn(CC(F)(F)F)c3cc(C(=O)N4CCCOCC4)ncc23)c1', 'human A2B receptors (Homo sapiens)', '< 100 nM'),
  ('O=C(c1cc2c(cn1)c(Nc1nccs1)nn2CC(F)(F)F)N1CCCOCC1', 'human A2B receptors (Homo sapiens)', '< 100 nM'),
  ('Cc1ccc(Nc2nn(CC(F)(F)F)c3cc(C(=O)N4CCCOCC4)ncc23)cc1F', 'human A2B receptors (Homo sapiens)', '< 100 nM'),
  ('O=C(c1cc2c(cn1)c(Nc1ccc(F)cc1)nn2CC(F)(F)F)N1CC2CCC(C1)O2', 'human A2B receptors (Homo sapiens)', '< 100 nM'),
  ('O=C(c1cc2c(cn1)c(Nc1cccc(Cl)n1)nn2CC(F)(F)F)N1CCCOCC1', 'human A2B receptors (Homo sapiens)', '< 1000 nM'),
  ('COc1ccc(Nc2nn(CC(F)(F)F)c3cc(C(=O)N4CCCOCC4)ncc23)cc1', 'human A2B receptors (Homo sapiens)', '< 1000 nM'),
  ('O=C(c1cc2c(cn1)c(Nc1ccc(F)c(F)c1)nn2CC(F)(F)F)N1CCCOCC1', 'human A2B receptors (Homo sapiens)', '< 1000 nM'),
  ('O=C(c1cc2c(cn1)c(Nc1cccc(F)c1)nn2CC(F)(F)F)N1[C@@H]2CC[C@H]1C[C@@H](O)C2', 'human A2B receptors (Homo sapiens)', '< 100 nM');

Report measured IC50; entry is "O=C(c1cc2c(cn1)c(Nc1cnccn1)nn2CC(F)(F)F)N1CCC(F)CC1"
< 1000 nM

Return IC50 for the following compound: "O=C(c1cc2c(cn1)c(Nc1cc(F)c(Cl)cn1)nn2CC(F)(F)F)N1CCCOCC1"
< 100 nM

Specify reported IC50 for the compound shown: "O=C(c1cc2c(cn1)c(Nc1ccc(F)c(Cl)n1)nn2CC(F)(F)F)N1CCCOCC1"
< 1000 nM

Give recorded IC50. "O=C(c1cc2c(cn1)c(Nc1ccc(F)cc1)nn2CC(F)(F)F)N1[C@@H]2CC[C@H]1C[C@@H](O)C2"
< 1000 nM
